- System: KHOS-NP
- ASSAY_INFO: relative viability vs DMSO control (72 h) (fraction); higher = more viable cells
- TEST_SETTINGS: 10 µM
ASSAY_ENDPOINT: relative viability
# respond with the number and nothing more

Consider the worked cases shown below.
In: What value of relative viability on KHOS-NP does COc1cc2ncnc(Nc3ccc(F)c(Cl)c3)c2cc1NC(=O)/C=C/CN1CCCCC1 have?
Out: 0.0233

In: Entry to check: N#Cc1ccnc(N2C(=O)CC[C@H]2C(=O)N(c2cncc(F)c2)[C@H](C(=O)NC2CC(F)(F)C2)c2ccccc2Cl)c1
Out: 1.06

In: Next: COc1cc2c(Oc3ccc4[nH]c(C)cc4c3F)ccnc2cc1OCC1(N)CC1
Out: 0.264

---
In: Lab request: please report relative viability under test system KHOS-NP for COc1cc2nccc(Oc3ccc(NC(=O)C4(C(=O)Nc5ccc(F)cc5)CC4)cc3)c2cc1OC [Cabozantinib]
Out: 0.586

In: Follow-up item: COc1cc2ncnc(Nc3cccc(Cl)c3F)c2cc1OC(=O)N1CCN(C)C[C@H]1C
Out: 1.02

In: Can you handle C[C@@H]1COC(Nc2ccc3ncnc(Nc4ccc(OCc5nccs5)c(Cl)c4)c3c2)=N1 next?
Out: 0.94
